- TGT: T1, Bzz1-2, P38822
- T1 sequence (P38822 568-633, looked up): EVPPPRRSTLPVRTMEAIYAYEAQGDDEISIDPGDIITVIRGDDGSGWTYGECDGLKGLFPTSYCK
- ASSAY_METHOD_TEXT: SPOT array
- TEST_CONDITIONS: median of control spots 4538
MEASURE_NAME: SPOT intensity

A: ERPKRRAPPPVPKKP
B: NNFYRPLLRSVLVLL
C: NFFRKKLGIPRKLKR
D: VRTRRRPPPPPIPST
**Query** Sort the listed binders above so the one with the largest SPOT intensity comes first and the smallest comes last. The labels, placed in the requested order, form the answer.
**Result** D, A, C, B
(D: 4030, A: 791, C: 7, B: 2)
